method: Pharmacokinetics after PO administration
test.parameters: K18-hACE2(Tg) C57Bl/6J, mouse, kidney, 25 mg/kg
assay.metric: AUC(0-inf) (µM·h)
Please respond with the number in µM·h and leave the unit unwritten.

What value of AUC(0-inf) has been recorded for this entry: NC(=O)N1CCC(CC(=O)N2CCC([C@H]3c4ncc(Br)cc4CCc4cc(Cl)cc(Br)c43)CC2)CC1
113

====

System: VSV-SARS-CoV-2-S pseudovirus
method: microbe, parasite or virus in culture
Type: cell-based
test.parameters: read-out: EC50
Listed here: items and their measured pEC50.
Just the number, please; pEC50 means minus log10 of the concentration in mol/L.

Example entries begin here.
# compound, subject.of.test, pEC50
measured = [
    ("CN1CCC(OC(c2ccccc2)c2ccccc2)CC1", "VSV-SARS-CoV-2-S pseudovirus", 5.28),
    ("C[C@@H](CN1c2ccccc2Sc2ccccc21)N(C)C", "VSV-SARS-CoV-2-S pseudovirus", 5.35),
    ("CN1CCN(C(c2ccccc2)c2ccccc2)CC1", "VSV-SARS-CoV-2-S pseudovirus", 4.60),
    ("C[C@@H]1O[C@@]2(CS1)CN1CCC2CC1", "VSV-SARS-CoV-2-S pseudovirus", 4.75),
    ("OC(CCCN1CCCCC1)(c1ccccc1)c1ccccc1", "VSV-SARS-CoV-2-S pseudovirus", 4.89),
    ("CCN1CCN(C2c3ccccc3-c3ccc(Br)cc32)CC1 (centres unmarked)", "VSV-SARS-CoV-2-S pseudovirus", 4.55),
    ("CC(C)N1CCN([C@@H](c2ccccc2)c2ccc(Cl)cc2)CC1", "VSV-SARS-CoV-2-S pseudovirus", 5.44),
    ("COc1ccc(CCN2CCC(Nc3nc4ccccc4n3Cc3ccc(F)cc3)CC2)cc1", "VSV-SARS-CoV-2-S pseudovirus", 5.08),
    ("c1ccc2c(c1)Sc1ccccc1N2C[C@H]1CN2CCC1CC2", "VSV-SARS-CoV-2-S pseudovirus", 5.82),
    ("CN1CCC(=C2c3ccccc3C=Cc3ccccc32)CC1", "VSV-SARS-CoV-2-S pseudovirus", 4.91),
]

Record lookup: for VSV-SARS-CoV-2-S pseudovirus, what pEC50 belongs to Clc1ccc(C(c2ccc(Cl)cc2)N2CCNCC2)cc1 ?
5.70

Record lookup: for VSV-SARS-CoV-2-S pseudovirus, what pEC50 belongs to Clc1ccc(C(c2ccccc2)N2CCNCC2)cc1 (centres unmarked) ?
5.52

Record lookup: for VSV-SARS-CoV-2-S pseudovirus, what pEC50 belongs to CN1CCCC(n2nc(Cc3ccc(Cl)cc3)c3ccccc3c2=O)CC1 (centres unmarked) ?
5.37

Record lookup: for VSV-SARS-CoV-2-S pseudovirus, what pEC50 belongs to Clc1ccc([C@H](c2ccccc2)N2CCN(C3CCCCC3)CC2)cc1 ?
5.40

Record lookup: for VSV-SARS-CoV-2-S pseudovirus, what pEC50 belongs to CN1CCN(C(c2ccc(Cl)cc2)c2ccc(Cl)cc2)CC1 ?
5.59

Record lookup: for VSV-SARS-CoV-2-S pseudovirus, what pEC50 belongs to CN1[C@@H]2CC[C@H]1CC(O[C@@H](c1ccccc1)c1ccc(Cl)cc1)C2 (some centres unmarked) ?
5.51

Record lookup: for VSV-SARS-CoV-2-S pseudovirus, what pEC50 belongs to CN(C)CCN(Cc1ccc(Cl)cc1)c1ccccn1 ?
4.95
